# Tested on: Thoracic aorta
# RUN_DESCRIPTION: Vasorelaxant activity in CD-1 mouse thoracic aorta rings assessed as inhibition of L-phenylephrine-induced contraction
# Format: functional, tissue-based
# EXPERIMENTAL_SETUP: CD-1, Thoracic aorta
pEC50: −log10 of the molar value.
MEASURE_NAME: pEC50

Take a look at these entries with their results.
structure_string=COc1ccc(-n2sc(=O)n(-c3ccccc3)c2=O)cc1 measure_name=pEC50 observed_result=5.80
structure_string=O=c1sn(-c2ccccc2)c(=O)n1-c1ccccc1 measure_name=pEC50 observed_result=5.77
structure_string=Cc1ccc(-n2sc(=O)n(-c3ccccc3)c2=O)cc1 measure_name=pEC50 observed_result=5.89
structure_string=COc1ccc(-n2sc(=O)n(-c3ccc(Cl)cc3)c2=O)cc1 measure_name=pEC50 observed_result=5.68
structure_string=COc1ccc(-n2sc(=O)n(C3CCCCC3)c2=O)cc1 measure_name=pEC50 observed_result=5.72
structure_string=O=c1sn(-c2ccc(F)cc2)c(=O)n1-c1ccccc1 measure_name=pEC50 observed_result=5.41

[I] COc1ccc(-n2sc(=O)n(-c3ccc(OC)cc3)c2=O)cc1
[II] COc1ccc(-n2sc(=O)n(-c3ccc(C)cc3)c2=O)cc1
Prompt: Which one would you say has the larger pEC50 value: I , or II ? Reply with the label of the item you choose.
Response: II
